// values below are reported fold change (FC)
# System: MCF7
# assay_comment: Potentiation of vinblastine-induced cytotoxicity against vinblastine-sensitive human MCF7 cells assessed as fold reduction in vinblastine IC50 at 25 ug/ml after 72 hrs by SRB assay relative to vinblastine alone
# Type: functional

- compound_string: "CCC[C@H]1CCCCCCCCCC(=O)O[C@H]2[C@H](O[C@H]3[C@H](O)[C@@H](C)O[C@@H](O[C@H]4[C@H](O1)O[C@H](C)[C@@H](O)[C@@H]4O)[C@@H]3O[C@@H]1O[C@@H](C)[C@H](OC(C)=O)[C@@H](O)[C@H]1O)O[C@H](C)[C@@H](O)[C@@H]2OC(=O)[C@H](C)[C@@H](C)O"
  limit_qualifier: "="
  fold change (FC): 34
- compound_string: "C/C=C(\\C)C(=O)O[C@H]1[C@@H]2O[C@H]3[C@H](O[C@@H](CCC)CCCCCCCCCC(=O)O[C@@H]4[C@@H](O)[C@H](C)O[C@@H](O[C@H]5[C@H](O)[C@@H](C)O[C@@H](O[C@H]([C@H]1O)[C@H](C)O2)[C@@H]5O[C@@H]1O[C@@H](C)[C@H](O)[C@@H](O)[C@H]1OC(=O)[C@H](C)[C@@H](C)O)[C@@H]4O)O[C@H](C)[C@@H](O)[C@@H]3O"
  limit_qualifier: "="
  fold change (FC): 37
- compound_string: "C/C=C(\\C)C(=O)O[C@H]1[C@H](O[C@H]2[C@@H]3O[C@H]4[C@H](O[C@@H](CCC)CCCCCCCCCC(=O)O[C@H]5[C@H](O[C@H]6[C@H](OC[C@@H](O3)[C@@H](O)[C@@H]2O)O[C@H](C)[C@@H](O)[C@@H]6O)O[C@@H](C)[C@H](O)[C@H]5O)O[C@H](C)[C@@H](O)[C@@H]4O)O[C@@H](C)[C@H](O)[C@H]1O"
  limit_qualifier: "="
  fold change (FC): 4
- compound_string: "C/C=C(\\C)C(=O)O[C@@H]1[C@H](O)[C@@H](O)[C@H](O[C@@H]2[C@@H](O)[C@@H](OC(=O)/C(C)=C/C)[C@H](O[C@H]3[C@@H]4O[C@H]5[C@H](O[C@@H](CCC)CCCCCCCCCC(=O)O[C@H]3[C@H](O)[C@@H](CO)O4)O[C@H](C)[C@@H](O)[C@@H]5O)O[C@H]2C)O[C@@H]1C"
  limit_qualifier: ">"
  fold change (FC): 87
- compound_string: "CCC[C@H]1CCCCCCCCCC(=O)O[C@H]2[C@H](OC[C@H]3O[C@@H](O[C@H]4[C@H](O1)O[C@H](C)[C@@H](O)[C@@H]4O)[C@H](O[C@@H]1O[C@@H](C)[C@H](OC(C)=O)[C@@H](O)[C@H]1O)[C@@H](O)[C@@H]3O)O[C@H](C)[C@@H](O)[C@@H]2OC(=O)[C@H](C)[C@@H](C)O"
  limit_qualifier: "="
  fold change (FC): 4
- compound_string: "C/C=C(\\C)C(=O)O[C@@H]1[C@H](O)[C@@H](O)[C@H](O[C@@H]2[C@@H](O)[C@@H](OC(=O)/C(C)=C/C)[C@H](O[C@H]3[C@@H]4O[C@H]5[C@H](O[C@@H](CCCCC)CCCCCCCCCC(=O)O[C@H]3[C@H](O)[C@@H](CO)O4)O[C@H](C)[C@@H](O)[C@@H]5O)O[C@H]2C)O[C@@H]1C"
  limit_qualifier: ">"
  fold change (FC): 87
